- Target Desc: T1, recombinant human αvβ6 extracellular domain (R&D Systems) (human, UniProt P06756 31-992; P18564 22-709)
- T1 chain 1: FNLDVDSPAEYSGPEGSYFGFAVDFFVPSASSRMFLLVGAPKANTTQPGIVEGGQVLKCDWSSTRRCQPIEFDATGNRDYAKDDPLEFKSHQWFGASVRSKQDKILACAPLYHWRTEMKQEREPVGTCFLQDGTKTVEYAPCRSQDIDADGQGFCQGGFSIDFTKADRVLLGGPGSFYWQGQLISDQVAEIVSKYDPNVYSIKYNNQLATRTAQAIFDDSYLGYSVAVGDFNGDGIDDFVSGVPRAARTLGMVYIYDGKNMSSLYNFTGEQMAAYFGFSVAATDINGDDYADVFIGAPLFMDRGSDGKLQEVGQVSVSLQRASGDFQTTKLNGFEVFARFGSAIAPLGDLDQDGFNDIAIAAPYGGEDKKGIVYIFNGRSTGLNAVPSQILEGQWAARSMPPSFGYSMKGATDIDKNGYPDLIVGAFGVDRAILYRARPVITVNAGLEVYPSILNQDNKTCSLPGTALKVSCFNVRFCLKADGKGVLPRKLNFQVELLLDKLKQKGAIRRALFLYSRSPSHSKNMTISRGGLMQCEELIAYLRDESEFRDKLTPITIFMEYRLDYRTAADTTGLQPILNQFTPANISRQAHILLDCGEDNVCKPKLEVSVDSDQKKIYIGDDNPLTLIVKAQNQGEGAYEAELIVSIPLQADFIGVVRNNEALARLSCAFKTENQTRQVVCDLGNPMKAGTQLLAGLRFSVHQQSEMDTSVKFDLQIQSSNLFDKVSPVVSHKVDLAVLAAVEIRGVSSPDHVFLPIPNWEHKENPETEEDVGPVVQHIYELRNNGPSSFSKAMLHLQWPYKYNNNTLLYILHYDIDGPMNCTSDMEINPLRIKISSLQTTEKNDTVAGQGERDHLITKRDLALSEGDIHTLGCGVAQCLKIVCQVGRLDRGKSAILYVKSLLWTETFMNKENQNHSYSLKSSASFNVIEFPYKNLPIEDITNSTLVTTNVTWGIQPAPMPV
- T1 chain 2: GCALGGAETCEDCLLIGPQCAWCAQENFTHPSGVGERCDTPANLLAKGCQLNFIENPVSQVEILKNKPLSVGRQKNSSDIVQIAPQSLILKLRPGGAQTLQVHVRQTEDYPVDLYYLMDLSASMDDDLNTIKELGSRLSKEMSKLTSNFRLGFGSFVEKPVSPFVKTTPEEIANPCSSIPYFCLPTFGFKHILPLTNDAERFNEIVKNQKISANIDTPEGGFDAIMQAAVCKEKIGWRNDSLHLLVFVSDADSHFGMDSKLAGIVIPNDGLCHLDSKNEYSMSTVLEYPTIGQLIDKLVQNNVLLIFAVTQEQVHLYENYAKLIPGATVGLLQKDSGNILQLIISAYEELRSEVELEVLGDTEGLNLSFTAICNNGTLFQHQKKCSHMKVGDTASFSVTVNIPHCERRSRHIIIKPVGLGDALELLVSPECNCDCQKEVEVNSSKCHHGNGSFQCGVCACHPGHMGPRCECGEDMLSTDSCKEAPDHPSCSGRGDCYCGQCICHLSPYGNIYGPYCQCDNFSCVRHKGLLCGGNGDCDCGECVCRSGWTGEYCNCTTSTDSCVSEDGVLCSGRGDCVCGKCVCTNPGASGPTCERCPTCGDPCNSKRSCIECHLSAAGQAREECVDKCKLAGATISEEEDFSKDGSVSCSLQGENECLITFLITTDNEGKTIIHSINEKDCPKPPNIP
Bridges are numbered along the chain shown (N, C = ends). Where no end group is shown, it is not given here. [ ]: non-standard residue; d: D form. Lys(N3) = [N-]=[N+]=NCCCC[C@H](N)C(=O)O; Pra = C#CC[C@H](N)C(=O)O
Readout Label: EC50 (nM)
# number only, unit nM dropped from output

Request: Need EC50 of C(IRDye 800CW maleimide)FETLRGDLRILSILR[Pra]QNL[Lys(N3)]KELQD-NH2 (triazole 17-21) [5a-IRDye (peptide 5a coupled via Cys to maleimide-IRDye 800CW)] , thanks.
Result: 2.8
